Would you kindly list IC50 for each of these compounds?
assayed target: Full length wild-type cereblon CRBN (Homo sapiens)
Construct: Full length wild-type cereblon CRBN (80.0 nM, 10 μL) was incubated in assay buffer
Sequence (Q96SW2 whole entry): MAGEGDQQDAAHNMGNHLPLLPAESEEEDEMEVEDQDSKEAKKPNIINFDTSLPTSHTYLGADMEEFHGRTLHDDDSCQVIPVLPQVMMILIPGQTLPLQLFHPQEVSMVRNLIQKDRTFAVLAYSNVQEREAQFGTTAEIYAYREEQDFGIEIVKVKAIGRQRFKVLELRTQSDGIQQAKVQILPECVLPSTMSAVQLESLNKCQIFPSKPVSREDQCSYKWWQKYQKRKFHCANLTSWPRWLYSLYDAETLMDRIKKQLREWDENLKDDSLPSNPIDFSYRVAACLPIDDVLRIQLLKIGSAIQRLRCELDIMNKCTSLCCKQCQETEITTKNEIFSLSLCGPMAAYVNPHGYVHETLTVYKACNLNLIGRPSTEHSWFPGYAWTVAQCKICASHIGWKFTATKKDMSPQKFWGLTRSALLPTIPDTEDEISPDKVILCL
protocol text: Fluorescence polarization (FP) assay, cereblon binding
test settings: bounds stated in the text lists b2059-b2061; read-out: IC50 value

Need IC50, item O=C1CCC(N2Cc3ccc(COC(=O)N4CCC(Oc5ccccc5)C4)cc3C2=O)C(=O)N1 (stereo not drawn)
< 1100 nM

Would you kindly share the measured IC50 for Cc1c(Cl)cc(NC(=O)OCc2ccc3c(c2)C(=O)N(C2CCC(=O)NC2=O)C3)cc1OC1CCN(C)C1 (stereo not drawn) ?
< 1700 nM

Fill in the blank: the reported IC50 of O=C1CCC(N2Cc3ccc(COC(=O)N4CCCCC4)cc3C2=O)C(=O)N1 (stereo not drawn) is ____.
< 1100 nM

What does the data say about its IC50? Entry: O=C1CCC(N2Cc3ccc(COC(=O)Nc4cc(OC(F)(F)F)ccn4)cc3C2=O)C(=O)N1 (stereo not drawn)
< 1100 nM

Consider the compound shown here: O=C1CCC(N2Cc3ccc(COC(=O)Nc4ccc(N5CC6CCC(C5)O6)nc4)cc3C2=O)C(=O)N1 (stereo not drawn) What is its recorded IC50?
< 1100 nM

I am curious: what IC50 value has been reported for CCc1cc(NC(=O)OCc2ccc3c(c2)C(=O)N(C2CCC(=O)NC2=O)C3)cnc1C (stereo not drawn) ?
< 1700 nM

Can you share its IC50? I mean this compound: O=C1CCC(N2Cc3ccc(COC(=O)Nc4cc(OCCN5CCOCC5)cc(OC(F)F)c4)cc3C2=O)C(=O)N1 (stereo not drawn)
< 1700 nM

// returns reported IC50 for input O=C1CCC(N2Cc3ccc(COC(=O)Nc4cccc(OC5CC5)c4)cc3C2=O)C(=O)N1 (stereo not drawn)
< 1700 nM

// query IC50 value for entry O=C1CCC(N2Cc3ccc(COC(=O)Nc4cnc(N5CCCCC5)cn4)cc3C2=O)C(=O)N1 (stereo not drawn)
< 1100 nM

Need IC50, item O=C1CCC(N2Cc3ccc(COC(=O)Nc4ccc5c(c4)OCCC5)cc3C2=O)C(=O)N1 (stereo not drawn)
< 1700 nM

Name the recorded IC50 for O=C1CCC(N2Cc3ccc(COC(=O)NC4CCCCC4)cc3C2=O)C(=O)N1 (stereo not drawn) .
< 1700 nM

Dear colleague, I am looking for the recorded IC50 of the following compound: O=C1CCC(N2Cc3ccc(COC(=O)Nc4ccc(N5CCOCC5)nc4)cc3C2=O)C(=O)N1 (stereo not drawn)
< 1700 nM

// query IC50 value for entry CCOc1cc(NC(=O)OCc2ccc3c(c2)C(=O)N(C2CCC(=O)NC2=O)C3)ccc1C (stereo not drawn)
< 500 nM

Please report the recorded IC50 for Cc1cc(C)c(F)c(NC(=O)OCc2ccc3c(c2)C(=O)N(C2CCC(=O)NC2=O)C3)c1 (stereo not drawn) .
< 1100 nM

Please give the measured IC50 for this compound: CC(C)(C)c1cccc(NC(=O)OCc2ccc3c(c2)C(=O)N(C2CCC(=O)NC2=O)C3)c1 (stereo not drawn)
< 1100 nM

Consider the compound shown here: O=C1CCC(N2Cc3ccc(COC(=O)N4CCCC4)cc3C2=O)C(=O)N1 (stereo not drawn) What is its recorded IC50?
< 1700 nM

Dear colleague, I am looking for the recorded IC50 of the following compound: Cc1cc(NC(=O)OCc2ccc3c(c2)C(=O)N(C2CCC(=O)NC2=O)C3)cnc1-c1ccccc1 (stereo not drawn)
< 1700 nM

Entry O=C1CCC(N2Cc3ccc(COC(=O)Nc4cc(Cl)cc(OC5CCNC5)c4)cc3C2=O)C(=O)N1 (stereo not drawn) has what IC50?
< 1700 nM

// IC50 lookup, key: COc1ccc(Cl)cc1NC(=O)OCc1ccc2c(c1)C(=O)N(C1CCC(=O)NC1=O)C2 (stereo not drawn)
< 1700 nM

// returns reported IC50 for input COc1cc(NC(=O)OCc2ccc3c(c2)C(=O)N(C2CCC(=O)NC2=O)C3)cnc1-c1ccccc1 (stereo not drawn)
< 1700 nM

GET /values?readout=IC50&item= O=C1CCC(N2Cc3ccc(COC(=O)Nc4cnc5c(c4)COCC5)cc3C2=O)C(=O)N1 (stereo not drawn)
< 1100 nM

* * *

assayed target: Full length wild-type cereblon CRBN (Homo sapiens)
Construct: Full length wild-type cereblon CRBN (80.0 nM, 10 μL) was incubated in assay buffer
protocol text: Fluorescence polarization (FP) assay, cereblon binding
test settings: cereblon binding, class code; read-out: rFP IC50
metric: IC50

Provide value of IC50 for this record tested with Full length wild-type cereblon CRBN (Homo sapiens): Cc1ccc(NC(=O)OCc2ccc3c(c2)C(=O)N(C2CCC(=O)NC2=O)C3)cc1Cl (stereo not shown)
1.1 to 1.7 µM

Request - read-out IC50 | tested on Full length wild-type cereblon CRBN (Homo sapiens) | compound O=C1CCC(N2Cc3ccc(COC(=O)Nc4ccc(F)c(Cl)c4)cc3C2=O)C(=O)N1 (stereo not shown)
1.1 to 1.7 µM

Param readout = IC50; param system = Full length wild-type cereblon CRBN (Homo sapiens); param query = COc1ccccc1-c1ccc(NC(=O)OCc2ccc3c(c2)C(=O)N(C2CCC(=O)NC2=O)C3)cn1 (stereo not shown) ; response: value
0.5 to 1.1 µM

What IC50 appears in the records for this compound with Full length wild-type cereblon CRBN (Homo sapiens)? Cc1c(F)cc(NC(=O)OCc2ccc3c(c2)C(=O)N(C2CCC(=O)NC2=O)C3)cc1CN1CCOCC1 (stereo not shown)
0.5 to 1.1 µM

Record lookup: for Full length wild-type cereblon CRBN (Homo sapiens), what IC50 belongs to Cc1c(Cl)cc(NC(=O)OCc2ccc3c(c2)C(=O)N(C2CCC(=O)NC2=O)C3)cc1OC1CCNC1 (stereo not shown) ?
0.5 to 1.1 µM

What value of IC50 on Full length wild-type cereblon CRBN (Homo sapiens) does Cc1c(Cl)cc(NC(=O)OCc2ccc3c(c2)C(=O)N(C2CCC(=O)NC2=O)C3)cc1CN1CC2CC1CO2 (stereo not shown) have?
0.5 to 1.1 µM

Request body: readout IC50, system Full length wild-type cereblon CRBN (Homo sapiens), query CC(C)(C)c1ccc(NC(=O)OCc2ccc3c(c2)C(=O)N(C2CCC(=O)NC2=O)C3)cc1 (stereo not shown) . Return the value.
1.1 to 1.7 µM

* * *

assayed target: CRBN-DDB1 (Homo sapiens, UniProt Q96SW2)
Sequence (Q16531 whole entry partner, one chain of several): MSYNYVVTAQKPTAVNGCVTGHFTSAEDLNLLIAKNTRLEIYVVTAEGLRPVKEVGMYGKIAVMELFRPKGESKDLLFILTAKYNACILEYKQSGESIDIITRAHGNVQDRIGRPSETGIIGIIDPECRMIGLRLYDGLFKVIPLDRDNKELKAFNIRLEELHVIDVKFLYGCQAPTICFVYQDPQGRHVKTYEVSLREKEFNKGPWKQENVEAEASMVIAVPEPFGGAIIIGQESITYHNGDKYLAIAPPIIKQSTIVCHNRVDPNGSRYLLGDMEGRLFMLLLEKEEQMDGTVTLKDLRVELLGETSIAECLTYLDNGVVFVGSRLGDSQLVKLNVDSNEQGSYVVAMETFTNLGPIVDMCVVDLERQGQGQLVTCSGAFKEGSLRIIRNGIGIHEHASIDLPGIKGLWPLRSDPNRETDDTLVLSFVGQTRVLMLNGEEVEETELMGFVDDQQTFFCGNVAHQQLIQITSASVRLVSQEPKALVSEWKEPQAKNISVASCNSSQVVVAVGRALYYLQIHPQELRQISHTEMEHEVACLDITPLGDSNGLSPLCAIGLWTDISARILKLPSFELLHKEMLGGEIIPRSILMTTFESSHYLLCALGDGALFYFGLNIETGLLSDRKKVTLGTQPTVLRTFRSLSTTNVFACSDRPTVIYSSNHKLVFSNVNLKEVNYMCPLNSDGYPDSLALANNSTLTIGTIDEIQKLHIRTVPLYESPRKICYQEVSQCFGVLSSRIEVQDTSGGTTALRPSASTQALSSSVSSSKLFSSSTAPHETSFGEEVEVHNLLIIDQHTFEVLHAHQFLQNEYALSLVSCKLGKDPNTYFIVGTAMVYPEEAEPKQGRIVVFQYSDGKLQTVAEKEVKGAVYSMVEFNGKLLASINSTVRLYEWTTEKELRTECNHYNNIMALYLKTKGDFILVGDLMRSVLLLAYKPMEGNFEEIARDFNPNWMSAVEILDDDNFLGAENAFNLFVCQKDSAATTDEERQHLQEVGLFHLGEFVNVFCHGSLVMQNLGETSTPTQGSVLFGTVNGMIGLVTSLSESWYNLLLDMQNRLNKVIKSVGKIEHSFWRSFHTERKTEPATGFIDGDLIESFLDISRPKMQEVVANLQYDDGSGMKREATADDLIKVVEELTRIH
protocol text: HTRF binding of compounds to CRBN
test settings: read-out: HTRF Class (Cereblon binding, HTRF IC50)
pIC50: −log10 of the molar value.
So I've got a bunch of compounds here, and I need their pIC50 values.

What does the data say about its pIC50? Entry: O=C1CCC(N2Cc3ccc(COC(=O)Nc4cccc(Cl)c4)cc3C2=O)C(=O)N1 (stereo not shown)
6.00 to 7.00

What value of pIC50 has been reported for the following compound? Cc1cc(F)c(NC(=O)OCc2ccc3c(c2)C(=O)N(C2CCC(=O)NC2=O)C3)cc1C (stereo not shown)
6.00 to 7.00

Tell me the measured pIC50 of COc1cc(NC(=O)OCc2ccc3c(c2)C(=O)N(C2CCC(=O)NC2=O)C3)c(F)cc1C (stereo not shown) , please.
> 7.00

Need pIC50, item O=C1CCC(N2Cc3ccc(COC(=O)Nc4ccc(C(O)C(F)(F)F)cc4)cc3C2=O)C(=O)N1 (stereo not shown)
6.00 to 7.00

What pIC50 value was documented for this compound, Cc1cc(F)c(NC(=O)OCc2ccc3c(c2)C(=O)N(C2CCC(=O)NC2=O)C3)cc1Br (stereo not shown) ?
> 7.00

Which pIC50 reading was recorded for the compound O=C1CCC(N2Cc3ccc(COC(=O)Nc4cc(Cl)ccc4F)cc3C2=O)C(=O)N1 (stereo not shown) ?
6.00 to 7.00

Which measured pIC50 value corresponds to O=C1CCC(N2Cc3ccc(COC(=O)NC45CC(C(F)F)(C4)C5)cc3C2=O)C(=O)N1 (stereo not shown) ?
> 7.00

Which measured pIC50 value corresponds to O=C1CCC(N2Cc3ccc(COC(=O)Nc4cc(C5CC5)ccc4F)cc3C2=O)C(=O)N1 (stereo not shown) ?
> 7.00

What value of measured pIC50 is listed for O=C1CCC(N2Cc3ccc(COC(=O)Nc4cccc(C5CC5)c4)cc3C2=O)C(=O)N1 (stereo not shown) ?
6.00 to 7.00

Could you tell me which pIC50 is on file for O=C1CCC(N2Cc3ccc(COC(=O)Nc4cc(F)c5c(c4)CCO5)cc3C2=O)C(=O)N1 (stereo not shown) ?
> 7.00
